assay: Stability in mouse liver microsomes assessed as extraction ratio; format: ADME, Microsome; conditions: read-out: ERH
recorded metric: hepatic extraction ratio

In: Consider the compound shown here: `O=C(c1cccc(F)c1-c1ncccn1)N1[C@@H]2CC[C@H]1[C@H](Nc1cnc(C(F)(F)F)cn1)C2` What is its recorded hepatic extraction ratio?
Out: 0.4

###

assay: Drug concentration in Sprague-Dawley rat brain at 10 mg/kg, po after 0.5 hrs by LC-MS/MS analysis; assay type: ADME, organism-based; details: read-out: Ct
Collected concentration at 0.5 h values appear next to each entry.
Numbers only; they are read as ng/mL.

Sample records with concentration at 0.5 h:
query smiles | unit info | concentration at 0.5 h
O=C(c1ccccc1-c1ncccn1)N1[C@@H]2CC[C@H]1[C@H](Nc1cnc(C(F)(F)F)cn1)C2 | ng/mL | 296
O=C(c1cccc(F)c1-c1ncccn1)N1[C@@H]2CC[C@H]1[C@H](Nc1cnc(C(F)(F)F)cn1)C2 | ng/mL | 188
O=C(c1cccc(F)c1-c1ncccn1)N1[C@@H]2CC[C@H]1[C@H](Nc1ncc(C(F)(F)F)cc1F)C2 | ng/mL | 539
O=C(c1cccc(F)c1-c1ncccn1)N1[C@@H]2CC[C@H]1[C@H](Nc1ccc(C(F)(F)F)cn1)C2 | ng/mL | 72

--- query ---
In: Consider the compound shown here: `O=C(c1c(F)cccc1-c1ncccn1)N1[C@@H]2CC[C@H]1[C@H](Nc1cnc(C(F)(F)F)cn1)C2` What is its recorded concentration at 0.5 h?
Out: 654

###

Collected pKi values appear next to each entry.
Target: Orexin receptor type 2 (Homo sapiens)
Sequence (O43614 whole entry): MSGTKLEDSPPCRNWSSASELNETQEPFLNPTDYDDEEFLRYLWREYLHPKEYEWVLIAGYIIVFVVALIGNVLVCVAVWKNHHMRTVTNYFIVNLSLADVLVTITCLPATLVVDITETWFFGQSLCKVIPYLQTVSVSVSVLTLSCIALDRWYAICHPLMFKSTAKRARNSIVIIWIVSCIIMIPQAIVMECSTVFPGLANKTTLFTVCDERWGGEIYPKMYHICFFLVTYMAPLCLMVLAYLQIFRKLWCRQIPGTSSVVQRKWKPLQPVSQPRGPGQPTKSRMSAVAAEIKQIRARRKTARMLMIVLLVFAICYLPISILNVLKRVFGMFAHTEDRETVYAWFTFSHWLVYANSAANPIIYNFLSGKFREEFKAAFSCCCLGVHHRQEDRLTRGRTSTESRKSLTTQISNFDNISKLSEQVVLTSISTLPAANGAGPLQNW
# pKi is unitless: minus log10 of the molar concentration; print number only

Sample records with pKi:
molecule | value reported
O=C(c1cccc(F)c1-c1ncccn1)N1[C@@H]2CC[C@H]1[C@H](Nc1ncc(C(F)(F)F)cc1Cl)C2 | 6.27
Cc1ccc(-n2nccn2)c(C(=O)N2C3CCC2C(COc2ccc(C(F)(F)F)cn2)C3)n1 (racemic) | 6.38
O=C(c1ccccc1-c1cccs1)N1C2CCC1C(COc1ccc(F)cn1)C2 (racemic) | 7.89
O=C(c1ccccc1-n1nccn1)N1C2CCC1C(Oc1ccc(C(F)(F)F)cn1)C2 (racemic) | 5.57
Cc1ccc(-c2ncccn2)c(C(=O)N2[C@@H]3CC[C@H]2[C@H](COc2ccccn2)C3)n1 | 6.64
O=C(c1cccc(F)c1-c1ncccn1)N1[C@@H]2CC[C@H]1[C@H](Nc1ncc(C(F)(F)F)cc1F)C2 | 5.96

In: Consider the molecule shown here: `O=C(c1cc(F)ccc1-c1ncccn1)N1[C@@H]2CC[C@H]1[C@H](Nc1cnc(C(F)(F)F)cn1)C2` What is its recorded pKi?
Out: 6.14
